# credit: paper PMC8222333

Target: d-enCas12a-Ultra (Acidaminococcus sp., UniProt U2UMQ6 1-1307, E174R;S542R;K548R;M537R;F870L;D908A;E993A;D1235A)
Assay: Spec-seq (native PAGE EMSA with sequencing of bound and unbound); 25 mM Tris-HCl pH 7.4, 150 mM KCl, 5 mM MgCl2, 10% glycerol, 1 mM DTT, 40 ng/uL salmon sperm DNA; 400 nM Cas12a, 480 nM crRNA, 50 nM library, 37 C 1 h; native PAGE at room temperature; high values mean tight binding;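 also: relative affinity from the bound to unbound sequence frequency ratio in Spec-seq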
Conditions: protein: recombinant
readout name: binding signal (lnKA)
Response body: numeric value in lnKA, unit text excluded.

Item TAGA (dsDNA) DNA 1: GCTATCTAGTGCTCAGTACGCACTGTAGAAGGAAACTTCTGGCAGGACCAGGTCATGAGATCGGAAGAGCACACGTCTGAACTCCAGTCA DNA 2: TGACTGGAGTTCAGACGTGTGCTCTTCCGATCTCATGACCTGGTCCTGCCAGAAGTTTCCTTCTACAGTGCGTACTGAGCACTAGATAGC RNA: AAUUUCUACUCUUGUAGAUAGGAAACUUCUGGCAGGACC has what recorded binding signal?
-3.33

# input binder: CCAC (dsDNA) DNA 1: GCTATCTAGTGCTCAGTACGCACTGCCACAGGAAACTTCTGGCAGGACCAGGTCATGAGATCGGAAGAGCACACGTCTGAACTCCAGTCA DNA 2: TGACTGGAGTTCAGACGTGTGCTCTTCCGATCTCATGACCTGGTCCTGCCAGAAGTTTCCTGTGGCAGTGCGTACTGAGCACTAGATAGC RNA: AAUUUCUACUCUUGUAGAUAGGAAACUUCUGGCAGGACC ; wanted: its binding signal
-3.37
